FYI, the data here is from patent US20190359687A1.

# tested system: T1, human glycophorin A in the red blood cell membrane (human, UniProt P02724 20-150)
# T1 construct: whole, on cells; used for intact RBC, isolated RBC membranes and transfected cells; the assay field tells which; also called GPA; hGPA
# T1 sequence (looked up): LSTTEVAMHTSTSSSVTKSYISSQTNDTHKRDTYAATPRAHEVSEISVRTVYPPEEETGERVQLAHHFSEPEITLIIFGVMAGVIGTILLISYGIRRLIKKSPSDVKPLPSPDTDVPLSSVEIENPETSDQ
# protocol: FACS, RBC Hu01

binder	fluorescence intensity
Hu6C12-4 (antibody, V domains shown, IgG format; VH.1d + Vk.1) VH: EVQLVQSGAEVKKPGASVKVSCKASGYTFTTYTIHWVRQAPGQGLEWMGYINPSSDYTRYNPKFKDRVTLTTDTSTSTAYMELRSLRSDDTAVYYCQRGTRDYWGQGTTVTVSS VL: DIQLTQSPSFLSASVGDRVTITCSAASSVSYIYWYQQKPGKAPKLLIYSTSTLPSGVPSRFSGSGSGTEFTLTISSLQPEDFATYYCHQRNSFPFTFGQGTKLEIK	3
Hu6C12-12 (antibody, V domains shown, IgG format; VH.1c + Vk.1a) VH: EVQLVQSGAEVKKPGASVKVSCKASGYTFTTYTIHWVRQAPGQGLEWMGYINPSSDYTRYNPKFKDRVTMTTDTSTSTAYMELRSLRSDDTAVYYCQTGTRDYWGQGTTVTVSS VL: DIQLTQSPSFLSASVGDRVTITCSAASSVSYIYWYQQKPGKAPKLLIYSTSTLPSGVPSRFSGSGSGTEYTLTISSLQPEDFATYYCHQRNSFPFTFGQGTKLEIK	646
Hu6C12-3 (antibody, V domains shown, IgG format; VH.1c + Vk.1) VH: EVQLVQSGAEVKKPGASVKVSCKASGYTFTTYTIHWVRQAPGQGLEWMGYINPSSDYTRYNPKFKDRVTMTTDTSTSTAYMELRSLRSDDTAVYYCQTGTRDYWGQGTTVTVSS VL: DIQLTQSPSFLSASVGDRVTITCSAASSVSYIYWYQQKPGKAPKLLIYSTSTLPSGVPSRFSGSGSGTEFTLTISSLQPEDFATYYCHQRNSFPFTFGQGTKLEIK	1070
